# SYSTEM: recombinant CD73 (Homo sapiens (Human))
# ASSAY_EXPLANATION: Assay 2: Inhibition of the CD73 enzyme in vitro (0.05 nM CD73, 1 hour 37° C., Malachite Green)
# Assay type: biochemical
# ASSAY_SETUP: 0.05 nM CD73, 50 μM AMP, 1 hour at 37° C.
# Sequence (P21589 27-547): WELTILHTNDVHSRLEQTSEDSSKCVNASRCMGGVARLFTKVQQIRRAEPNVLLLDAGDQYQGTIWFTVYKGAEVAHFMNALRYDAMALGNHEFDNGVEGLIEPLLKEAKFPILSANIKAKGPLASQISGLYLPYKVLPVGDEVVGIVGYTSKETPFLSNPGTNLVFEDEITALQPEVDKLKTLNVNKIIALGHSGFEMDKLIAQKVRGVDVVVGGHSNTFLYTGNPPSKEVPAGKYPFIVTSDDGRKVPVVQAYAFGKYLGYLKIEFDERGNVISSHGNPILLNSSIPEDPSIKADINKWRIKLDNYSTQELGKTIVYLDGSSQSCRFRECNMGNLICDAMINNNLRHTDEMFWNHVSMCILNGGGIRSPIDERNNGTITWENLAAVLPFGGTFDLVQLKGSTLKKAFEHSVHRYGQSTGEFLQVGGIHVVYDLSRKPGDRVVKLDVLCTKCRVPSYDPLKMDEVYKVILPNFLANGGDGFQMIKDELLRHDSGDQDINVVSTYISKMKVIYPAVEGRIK
IC50 strictly under 0.4 nM means Criterion met; at 0.4 nM or over means Criterion not met.

A selection of reference data follows.
compound=C#C[C@@]1(O)[C@@H](COC(Cc2ccc(-c3ccccc3C(=O)O)cc2)(C(=O)O)C(=O)O)O[C@@H](n2cnc3c(N)nc(Cl)nc32)[C@@H]1O class_label="Criterion met"
compound=C#C[C@@]1(O)[C@@H](COC(Cc2ccc(-c3cccn(CC)c3=O)cc2)(C(=O)O)C(=O)O)O[C@@H](n2cnc3c(NC)nc(Cl)nc32)[C@@H]1O class_label="Criterion met"
compound=C#C[C@@]1(O)[C@@H](COC(Cc2ccccc2)(C(=O)O)C(=O)O)O[C@@H](n2cnc3c(NCc4ccc(Cl)cc4)nc(Cl)nc32)[C@@H]1O class_label="Criterion not met"
compound="C#C[C@@]1(O)[C@@H](COC(Cc2ccccc2)(C(=O)O)C(=O)O)O[C@@H](n2cnc3c(N(C)C4CC(O)C4)nc(Cl)nc32)[C@@H]1O (stereo partly drawn)" class_label="Criterion not met"
compound=C#C[C@@]1(O)[C@@H](COC(Cc2ccc(N3CCCN(CCO)C3=O)cc2)(C(=O)O)C(=O)O)O[C@@H](n2cnc3c(NC)nc(Cl)nc32)[C@@H]1O class_label="Criterion met"
compound=C#C[C@@]1(O)[C@@H](COC(Cc2ccccc2)(C(=O)O)C(=O)O)O[C@@H](n2cnc3c(NO)nc(Cl)nc32)[C@@H]1O class_label="Criterion not met"

Take the compound C#C[C@@]1(O)[C@@H](COC(Cc2ccc(N3CCCNC3=O)cc2)(C(=O)O)c2cscn2)O[C@@H](n2cnc3c(NC(C)C)nc(Cl)nc32)[C@@H]1O (stereo partly drawn) and say whether its IC50 is less than 0.4 nM.
Criterion not met

Take the compound `C#C[C@@]1(O)[C@@H](COC(Cc2ccc(-c3cccnc3OC)cc2)(C(=O)O)C(=O)O)O[C@@H](n2cnc3c(N)nc(Cl)nc32)[C@@H]1O` and say whether its IC50 is less than 0.4 nM.
Criterion met

Take the compound `C#C[C@@]1(O)[C@@H](COC(Cc2ccc(N3CCCNC3=O)cc2)(C(=O)O)C(=O)O)O[C@@H](n2ccc(N)nc2=O)[C@@H]1O` and say whether its IC50 is less than 0.4 nM.
Criterion not met

Take the compound `C#C[C@@]1(O)[C@@H](COC(Cc2ccc(-c3cccn(C)c3=O)cc2)(C(=O)O)C(=O)O)O[C@@H](n2cnc3c(N)nc(Cl)nc32)[C@@H]1O` and say whether its IC50 is less than 0.4 nM.
Criterion not met

Take the compound `C#C[C@@]1(O)[C@@H](COC(Cc2ccccc2)(C(=O)O)C(=O)O)O[C@@H](n2cnc3c(N4CC(CO)C4)nc(Cl)nc32)[C@@H]1O` and say whether its IC50 is less than 0.4 nM.
Criterion not met

Take the compound `C#C[C@@]1(O)[C@@H](COC(Cc2ccccc2)(C(=O)O)C(=O)O)O[C@@H](n2cnc3c(-c4cccs4)nc(Cl)nc32)[C@@H]1O` and say whether its IC50 is less than 0.4 nM.
Criterion met

---

# SYSTEM: recombinant CD73 (Homo sapiens (Human))
# ASSAY_EXPLANATION: Potency against recombinant CD73, malachite green assay
# Assay type: biochemical
# Sequence (P21589 27-574): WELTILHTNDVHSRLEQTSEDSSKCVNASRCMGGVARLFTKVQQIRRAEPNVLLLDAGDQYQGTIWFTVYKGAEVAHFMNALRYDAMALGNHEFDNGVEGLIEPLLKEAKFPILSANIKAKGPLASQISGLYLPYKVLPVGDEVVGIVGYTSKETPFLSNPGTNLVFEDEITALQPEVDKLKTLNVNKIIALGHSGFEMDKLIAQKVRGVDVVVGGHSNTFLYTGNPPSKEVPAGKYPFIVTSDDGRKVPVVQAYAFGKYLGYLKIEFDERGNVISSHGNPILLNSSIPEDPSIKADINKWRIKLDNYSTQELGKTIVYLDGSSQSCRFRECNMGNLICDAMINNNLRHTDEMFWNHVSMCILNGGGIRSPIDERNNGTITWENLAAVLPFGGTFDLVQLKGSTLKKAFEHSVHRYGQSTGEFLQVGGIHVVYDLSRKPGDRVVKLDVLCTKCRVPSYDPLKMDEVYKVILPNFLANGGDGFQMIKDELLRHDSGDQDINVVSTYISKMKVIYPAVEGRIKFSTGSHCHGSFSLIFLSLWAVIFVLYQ
EXPERIMENTAL_READOUT: IC50 (nM)
Numeric answer only, unit nM assumed.

Quick note, IC50 for C#C[C@@]1(O)[C@@H](COC(Cc2ccc(N3CCCNC3=O)cc2)(C(=O)O)C(=O)O)O[C@@H](n2cnc3c(N)nc(Cl)nc32)[C@@H]1O [Compound 9] landed at 0.17

---

# SYSTEM: recombinant CD73 (Homo sapiens (Human))
# ASSAY_EXPLANATION: Assay 1: Inhibition of the CD73 enzyme in vitro (0.5 nM CD73, 30 min room temperature, Malachite Green)
# Type: biochemical
# ASSAY_SETUP: 0.5 nM CD73, 30 minutes at room temperature
EXPERIMENTAL_READOUT: pIC50
Scale: negative log10 of molar concentration, which is what pIC50 denotes.

Look over these answered cases.
structure_notation=C#C[C@@]1(O)[C@@H](COC(Cc2ccccc2)(C(=O)O)C(=O)O)O[C@@H](n2cnc3c(NCC4CC4)nc(Cl)nc32)[C@@H]1O system="recombinant CD73 (Homo sapiens (Human))" experimental_readout=pIC50 endpoint_value=9.10
structure_notation=C#CCC(OC[C@H]1O[C@@H](n2cnc3c(N)nc(Cl)nc32)[C@H](O)[C@@]1(O)C#C)(C(=O)O)C(=O)O system="recombinant CD73 (Homo sapiens (Human))" experimental_readout=pIC50 endpoint_value=8.15

Quick note, pIC50 for `C#C[C@@]1(O)[C@@H](COC(Cc2cccc(OC)c2)(C(=O)O)C(=O)O)O[C@@H](n2cnc3c(N)nc(Cl)nc32)[C@@H]1O` landed at 8.40

---

# SYSTEM: recombinant CD73 (Homo sapiens (Human))
# ASSAY_EXPLANATION: Assay 2: Inhibition of the CD73 enzyme in vitro (0.05 nM CD73, 1 hour 37° C., Malachite Green)
# Format: biochemical
# ASSAY_SETUP: 0.05 nM CD73, 50 μM AMP, 1 hour at 37° C.
IC50 strictly under 1 nM means true (1); at 1 nM or over means false (0).

A selection of reference data follows.
compound=C#C[C@@]1(O)[C@@H](COC(Cc2ccccc2)(C(=O)O)C(=O)O)O[C@@H](n2cnc3c(NCCO)nc(Cl)nc32)[C@@H]1O class_label="false (0)"
compound="C#C[C@@]1(O)[C@@H](COC(Cc2ccccc2)(C(=O)O)C(=O)NC)O[C@@H](n2cnc3c(NCC4CC4)nc(Cl)nc32)[C@@H]1O (some centres unmarked)" class_label="false (0)"
compound=C#C[C@@]1(O)[C@@H](COC(Cc2ccccc2)(C(=O)O)C(=O)O)O[C@@H](n2cnc3c(NCc4ccc(F)cc4)nc(Cl)nc32)[C@@H]1O class_label="true (1)"

Take the compound `C#C[C@@]1(O)[C@@H](COC(Cc2ccc(N3CCCN(C)C3=O)cc2)(C(=O)O)C(=O)O)O[C@@H](n2cnc3c(NCC4CC4)nc(Cl)nc32)[C@@H]1O` and say whether its IC50 is less than 1 nM.
true (1)

---

Listed compounds paired with reported pIC50
# SYSTEM: recombinant CD73 (Homo sapiens (Human))
# ASSAY_EXPLANATION: Assay 2: Inhibition of the CD73 enzyme in vitro (0.05 nM CD73, 1 hour 37° C., Malachite Green)
# Format: biochemical
# ASSAY_SETUP: 0.05 nM CD73, 50 μM AMP, 1 hour at 37° C.
# Procedure: For measurements of soluble CD73 enzyme activity, recombinant CD73 was obtained from R&D Systems, Cat. No. 5795-EN-010. […] Reactions were allowed to proceed for 1 hour at 37° C. before the addition of 100 μL Malachite Green (Cell Signaling Technology, Cat. No. 12776). After 5 minutes at room temperature, absorbance at 630 nm was determined on a microplate spectrophotometer. The concentration of inorganic phosphate was determined using a phosphate standard curve.
Scale: negative log10 of molar concentration, which is what pIC50 denotes.

compound="C#C[C@@]1(O)[C@@H](COC(Cc2ccc(N3CCCNC3=O)cc2)(C(=O)O)c2cscn2)O[C@@H](n2cnc3c(N)nc(Cl)nc32)[C@@H]1O (stereo partly shown) [Example 175]" experimental_readout=pIC50 endpoint_value=9.00
compound="C#C[C@@]1(O)[C@@H](COC(Cc2ccccc2)(C(=O)O)C(=O)O)O[C@@H](n2cnc3c(N(C)C)nc(Cl)nc32)[C@@H]1O [Example 31]" experimental_readout=pIC50 endpoint_value=8.70
compound="C#C[C@@]1(O)[C@@H](CO[C@@](Cc2ccccc2)(C(=O)O)c2cscn2)O[C@@H](n2cnc3c(NCC4CC4)nc(Cl)nc32)[C@@H]1O (single isomer, unassigned) [Example 173]" experimental_readout=pIC50 endpoint_value=6.95
compound="C#C[C@@]1(O)[C@@H](COC(Cc2ccc(N3CCCN(CCO)C3=O)cc2)(C(=O)O)C(=O)O)O[C@@H](n2cnc3c(NC(C)C)nc(Cl)nc32)[C@@H]1O [Example 139]" experimental_readout=pIC50 endpoint_value=9.89
compound="C#C[C@@]1(O)[C@@H](COC(Cc2ccccc2)(C(=O)O)C(=O)O)O[C@@H](n2cnc3c(N[C@@H](C)CO)nc(Cl)nc32)[C@@H]1O [Example 95]" experimental_readout=pIC50 endpoint_value=8.15
compound="C#C[C@@]1(O)[C@@H](COC(Cc2ccc(-c3ccc[nH]c3=O)cc2)(C(=O)O)C(=O)O)O[C@@H](n2cnc3c(NC)nc(Cl)nc32)[C@@H]1O [Example 147]" experimental_readout=pIC50 endpoint_value=9.24
compound="C#C[C@@]1(O)[C@@H](COC(Cc2ccccc2)(C(=O)O)C(=O)O)O[C@@H](n2cnc3c(NCC4CCC4)nc(Cl)nc32)[C@@H]1O [Example 45]" experimental_readout=pIC50 endpoint_value=9.00
compound="C#C[C@@]1(O)[C@@H](COC(Cc2ccc(N3CCCN(CCO)C3=O)cc2)(C(=O)O)C(=O)O)O[C@@H](n2cnc3c(NCC4CC4)nc(Cl)nc32)[C@@H]1O [Example 138]" experimental_readout=pIC50 endpoint_value=9.82

Quick note, pIC50 for C#C[C@@]1(O)[C@@H](COC(Cc2ccnc(Cl)c2)(C(=O)O)C(=O)O)O[C@@H](n2cnc3c(N)nc(Cl)nc32)[C@@H]1O [Compound 5] landed at 8.40

Quick note, pIC50 for C#C[C@@H]1[C@@H](O)[C@H](n2cnc3c(N)nc(Cl)nc32)O[C@@H]1COC(Cc1ccccc1)(C(=O)O)C(=O)O [Compound 2] landed at 6.83
